meta.source: patent US20220259593A1

molecules and their reported Mean relative activity
# System: K562 CRISPRi cells
# assay.notes: Constant region variant library pooled growth screen, K562
# Assay type: cell-based, human
# experimental.conditions: sgRNA constant region variants; activity relative to the original, un-modified constant region cr995
# Excerpt: We calculated relative activities for each targeting sequence:constant region pair by normalizing its phenotype to that of the targeting sequence paired with the unmodified constant region, identifying 409 constant region variants that on average conferred intermediate activity (0.1-0.9, FIG. 5B). Ten variants selected for individual evaluation also mediated intermediate levels of mRNA knockdown (FIG. 6B). […]

molecule: cr223 (nucleic acid, listed as DNA, chemistry not fully specified) guide: GTTTAAGAGCTAAGCTGGAAACAGCATAGCAAGTTTAAATAAGGGTACTCCGTTATCAACTTGAAAAAGTGGCACCGAGTCGGTGCT
Mean relative activity: 0.5667

Which value of Mean relative activity has been reported for cr061 (nucleic acid, listed as DNA, chemistry not fully specified) guide: GTTCAACAGCTAAGCTGGAAACAGCATAGCAAGTTTAAATAAGGCTAGTCCGTTATCAACTTGAAAAAGTGGCACCGAGTCGGTGCT in the records?
0.05691
